Test: pH of peptide solutions in DMSO/D5W, with succinate, and with Hiltonol
Format: physicochemical
Readings of pH of peptides in DMSO/D5W/5nnM Succinate and Hiltonol for the listed substances
Enter the number alone.

H-SKRGVGAKTLLLPDPFLFWPCLEGTRRSL-OH [CS6934] :: 6.79
H-ALSLTPGLRIGPSGLFLVFLAESAVDKGHPNRS-OH [CS7410] :: 6.88
H-SGQPAPEETVLFLGLLHGLLLILRRLRGG-OH [CS6937] :: 6.76
H-GTKALQLHSIAGRWPRMEPWVVESMSLGVP-OH [CS7415] :: 6.81

The recorded pH of peptides in DMSO/D5W/5nnM Succinate and Hiltonol for entry H-LPVFIGNIAVNHAPVSLRPGLGLPPGAPPGTVP-OH [CS7438] equals 6.96

Form: substance = H-AESAQRQGPNGGGEQSANEF-OH [CS7416] ; pH of peptides in DMSO/D5W/5nnM Succinate and Hiltonol = 6.54

Note to self: pH of peptides in DMSO/D5W/5nnM Succinate and Hiltonol recorded for H-WDGPPENDMLLKEICGSLIP-OH [CS7432] was 6.45

For reference, reported pH of peptides in DMSO/D5W/5nnM Succinate and Hiltonol for H-KGASLDAGWGSPRWTTTRMTSASAGRSTRA-OH [CS7414] stands at 6.99

pH of peptides in DMSO/D5W/5nnM Succinate and Hiltonol measured on H-IGALNPKRAAFFAEHYESWE-OH [CS7420] = 6.56

###

The entries below are paired with their reported Total Impurities.
Assay: Short-term room temperature stability of Pool 3 mixed with Hiltonol (RP-HPLC)
Type: physicochemical
Details: Pool 3 + Hiltonol, 6 Hours RT

H-KLAWRGRISSSGCPSMTSPPSPMFGMTLHT-OH [CS6919] :: 1703.9

Let's switch to this substance now.
Total Impurities measured on H-AHRQGEKQHLLPVFSRLALRLPWRHSVQL-OH [CS6941] = 0

###

Examples of substances with documented Main Peak follow.
Assay: Short-term room temperature stability of Pool 3 mixed with Hiltonol (RP-HPLC)
Format: physicochemical
Conditions: T0 Pool 3 + Hiltonol, RP-HPLC
API doc: respond with a numeric literal and nothing else, no unit.

H-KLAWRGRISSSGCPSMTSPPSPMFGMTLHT-OH [CS6919] :: 7786.28
H-VAGLAASGLHGSAWLVPGEQPVSGPHHGKQ-OH [CS6931] :: 9014.82
H-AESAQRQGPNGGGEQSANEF-OH [CS7416] :: 5988.42
H-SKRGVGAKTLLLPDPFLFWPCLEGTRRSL-OH [CS6934] :: 6147.14

Form: substance = H-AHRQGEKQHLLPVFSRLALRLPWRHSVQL-OH [CS6941] ; Main Peak = 7140.91

###

Test: Peptide diluent matrix (precipitation of DMSO dissolved peptides in various liquids)
Type: physicochemical
Design: key: Liposome / Precipitation in diluent: PBS pH 7.4 / Precipitation in diluent: Water / Precipitation in diluent: 10% Sucrose / Precipitation in diluent: D5W (5% Dextrose USP Grade Inj): P = precipitation; NP = no precipitation
Conditions: 10-20 μL DMSO dissolved peptide added to PBS pH 7.4
Property Label: Precipitation in diluent: PBS pH 7.4

H-LTDLPGRIRVAPQQNDLDSPQQISISNAE-OH [CS6709] :: NP
H-DSAVDKGHPNRSALSLTPGLRIGPSGIPQAGLG-OH [CS6726] :: NP
H-LKDSNSWPPSNKRGFDTEDAHKSNATPVP-OH [CS6712] :: NP
H-SPTEPSTKLPGFDSCGNTEIAERKIKRIYGGFK-OH [CS6720] :: NP

As a next step, examine the substance that follows.
Looking up H-LLTDRNTSGTTFTLLGVSDYPELQVPLFLVFLA-OH [CS6783] , I found its Precipitation in diluent: PBS pH 7.4 recorded as P
